- subject of test: Sodium-dependent serotonin transporter (Homo sapiens, UniProt P31645)
- Sequence (P31645 whole entry): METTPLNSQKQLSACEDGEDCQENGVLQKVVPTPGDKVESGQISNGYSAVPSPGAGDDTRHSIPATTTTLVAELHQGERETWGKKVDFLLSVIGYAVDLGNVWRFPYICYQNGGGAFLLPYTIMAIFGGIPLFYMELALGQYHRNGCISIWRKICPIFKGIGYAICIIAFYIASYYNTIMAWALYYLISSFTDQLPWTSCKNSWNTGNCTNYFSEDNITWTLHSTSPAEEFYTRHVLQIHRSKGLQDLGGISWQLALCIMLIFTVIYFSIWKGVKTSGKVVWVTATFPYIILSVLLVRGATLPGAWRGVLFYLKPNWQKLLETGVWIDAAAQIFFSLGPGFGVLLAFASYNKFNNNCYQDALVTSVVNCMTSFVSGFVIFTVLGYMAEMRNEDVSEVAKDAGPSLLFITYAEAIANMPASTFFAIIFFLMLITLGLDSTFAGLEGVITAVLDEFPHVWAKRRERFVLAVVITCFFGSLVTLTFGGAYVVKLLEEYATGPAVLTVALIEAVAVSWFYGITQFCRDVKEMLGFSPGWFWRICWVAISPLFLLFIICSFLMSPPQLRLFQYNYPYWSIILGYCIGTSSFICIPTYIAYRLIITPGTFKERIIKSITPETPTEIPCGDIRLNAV
- assay summary: Inhibition of serotonin reuptake at human serotonin transporter expressed in HEK293 cells after 5 mins by scintillation counting
Field: label. Allowed values: 1 (IC50 < 4 nM) or -1 (IC50 >= 4 nM).

Reference set (5 entries):
>  <entry smiles>
CS(=O)(=O)N(Cc1ccc2ccccc2c1)C1CCNCC1

>  <answer label>
1

$$$$
>  <entry smiles>
CC(C)N(C(=O)c1ccc2ccccc2c1)[C@@H]1CCNC1

>  <answer label>
-1

$$$$
>  <entry smiles>
CC(C)CN(C(=O)c1ccc2ccccc2c1)[C@H]1CCNC1

>  <answer label>
1

$$$$
>  <entry smiles>
O=C(c1ccc2ccccc2c1)N(C1CCCC1)[C@@H]1CCNC1

>  <answer label>
-1

$$$$
>  <entry smiles>
CN(C(=O)c1ccc(Cl)c(Cl)c1)[C@@H]1CCNC1

>  <answer label>
-1

$$$$

Continue with the molecule presented below.
Qu. Given the entry c1ccc2cc(COC3CCNCC3)ccc2c1 , would its reported IC50 be below 4 nM?
Ans. -1

---

- subject of test: Sodium-dependent dopamine transporter (Homo sapiens, UniProt Q01959)
- Sequence (Q01959 whole entry): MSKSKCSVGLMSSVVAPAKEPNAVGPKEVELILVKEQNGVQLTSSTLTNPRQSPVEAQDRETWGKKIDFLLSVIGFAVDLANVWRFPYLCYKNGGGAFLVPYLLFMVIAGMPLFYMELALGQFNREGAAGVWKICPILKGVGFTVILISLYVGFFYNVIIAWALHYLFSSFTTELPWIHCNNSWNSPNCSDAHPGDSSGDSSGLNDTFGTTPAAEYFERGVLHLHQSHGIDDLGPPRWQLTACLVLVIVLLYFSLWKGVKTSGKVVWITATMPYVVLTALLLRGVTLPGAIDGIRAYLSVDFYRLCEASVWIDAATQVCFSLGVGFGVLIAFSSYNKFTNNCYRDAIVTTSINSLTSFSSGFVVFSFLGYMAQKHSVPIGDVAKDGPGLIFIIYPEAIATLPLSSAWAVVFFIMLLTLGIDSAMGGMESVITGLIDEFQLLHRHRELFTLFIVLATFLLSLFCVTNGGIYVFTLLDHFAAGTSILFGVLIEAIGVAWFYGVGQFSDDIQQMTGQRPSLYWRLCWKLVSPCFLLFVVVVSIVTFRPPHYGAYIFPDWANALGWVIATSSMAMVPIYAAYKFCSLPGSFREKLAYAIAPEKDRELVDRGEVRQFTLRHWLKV
- assay summary: Inhibition of dopamine reuptake at human dopamine transporter expressed in HEK293 cells after 5 mins by scintillation counting
readout: IC50 (µM)
Answers are plain numbers, in µM.

>  <entry smiles>
CS(=O)(=O)N(Cc1ccc2ccccc2c1)C1CCNCC1

>  <unit tag>
µM

>  <assay value>
4.9

$$$$
>  <entry smiles>
O=C(c1ccc2ccccc2c1)N(C1CCC1)[C@@H]1CCNC1

>  <unit tag>
µM

>  <assay value>
5.8

$$$$
>  <entry smiles>
CC(C)CN(C(=O)c1ccc2ccccc2c1)[C@H]1CCNC1

>  <unit tag>
µM

>  <assay value>
0.744

$$$$

# per-item lookup of IC50; items listed below
1. c1cnc(N(Cc2ccc3ccccc3c2)C2CCNCC2)nc1
2. CC(=O)N(Cc1ccc2ccccc2c1)C1CCNCC1

Ans.
[1.3, 1.5]

---

Below are pKi values recorded for UniProt Q12809.
Sequence (Q12809 whole entry): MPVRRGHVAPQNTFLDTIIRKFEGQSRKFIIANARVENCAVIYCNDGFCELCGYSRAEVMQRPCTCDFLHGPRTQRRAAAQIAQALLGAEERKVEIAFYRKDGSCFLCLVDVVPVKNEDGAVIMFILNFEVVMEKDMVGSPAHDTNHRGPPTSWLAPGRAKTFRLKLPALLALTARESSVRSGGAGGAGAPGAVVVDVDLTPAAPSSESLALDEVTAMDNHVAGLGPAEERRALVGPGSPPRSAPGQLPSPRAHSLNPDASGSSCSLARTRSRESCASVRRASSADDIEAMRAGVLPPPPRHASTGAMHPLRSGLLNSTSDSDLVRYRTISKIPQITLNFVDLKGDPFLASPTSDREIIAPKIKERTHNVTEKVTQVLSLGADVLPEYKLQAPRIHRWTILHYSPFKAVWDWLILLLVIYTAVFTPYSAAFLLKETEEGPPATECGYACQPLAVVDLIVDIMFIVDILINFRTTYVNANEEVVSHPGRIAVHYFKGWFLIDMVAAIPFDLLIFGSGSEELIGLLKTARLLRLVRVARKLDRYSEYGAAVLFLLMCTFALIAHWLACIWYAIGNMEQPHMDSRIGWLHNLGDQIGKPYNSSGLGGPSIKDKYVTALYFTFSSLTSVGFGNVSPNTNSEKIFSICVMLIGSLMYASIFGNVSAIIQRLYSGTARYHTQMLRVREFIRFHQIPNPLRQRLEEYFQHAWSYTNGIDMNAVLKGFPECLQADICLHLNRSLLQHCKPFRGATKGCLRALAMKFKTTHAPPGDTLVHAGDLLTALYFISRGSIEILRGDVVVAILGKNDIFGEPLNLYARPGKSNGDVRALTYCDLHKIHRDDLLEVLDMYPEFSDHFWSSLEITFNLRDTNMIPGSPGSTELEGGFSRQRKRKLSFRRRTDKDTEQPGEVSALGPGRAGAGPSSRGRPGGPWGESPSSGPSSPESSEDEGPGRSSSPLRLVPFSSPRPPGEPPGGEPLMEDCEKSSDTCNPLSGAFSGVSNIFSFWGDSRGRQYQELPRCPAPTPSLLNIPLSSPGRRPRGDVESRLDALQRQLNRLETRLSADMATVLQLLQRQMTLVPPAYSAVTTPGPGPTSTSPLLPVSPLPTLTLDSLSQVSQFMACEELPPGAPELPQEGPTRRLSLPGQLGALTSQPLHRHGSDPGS
Answers are plain numbers, as −log10 of the molar value.

# per-item lookup of pKi; items listed below
1. CS(=O)(=O)N(Cc1ccc2ccccc2c1)[C@H]1CCNC1
2. CCC(=O)N(Cc1ccc2ccccc2c1)C1CCNCC1
3. CC(C)CN(C(=O)c1ccc2ccccc2c1)[C@@H]1CCNC1
4. CS(=O)(=O)N(Cc1ccc2ccccc2c1)[C@@H]1CCNC1
5. Cc1c(CN([C@@H]2CCNC2)S(C)(=O)=O)ccc2cc(F)ccc12
6. CS(=O)(=O)N(Cc1ccc2ccccc2c1)C1CCNCC1

Ans.
1: 4.96; 2: 4.92; 3: 5.15; 4: 5.38; 5: 5.80; 6: 5.49

---

Record form. Attribute: IC50. Fill in for each entry.
- subject of test: Sodium-dependent serotonin transporter (Homo sapiens)
- assay summary: Inhibition of serotonin reuptake at human serotonin transporter expressed in HEK293 cells after 5 mins by scintillation counting
Write the figure, then the unit, nothing else.

Some molecules with known IC50 results, for comparison:
>  <entry smiles>
Cc1c(C(=O)N(CC(C)(C)C)[C@H]2CCNC2)ccc(Cl)c1Cl

>  <subject of test>
Sodium-dependent serotonin transporter (Homo sapiens)

>  <readout>
IC50

>  <assay value>
15 nM

$$$$
>  <entry smiles>
CC(=O)N(Cc1ccc2ccccc2c1)C1CCNCC1

>  <subject of test>
Sodium-dependent serotonin transporter (Homo sapiens)

>  <readout>
IC50

>  <assay value>
4.5 nM

$$$$
>  <entry smiles>
c1cnc(N(Cc2ccc3ccccc3c2)C2CCNCC2)nc1

>  <subject of test>
Sodium-dependent serotonin transporter (Homo sapiens)

>  <readout>
IC50

>  <assay value>
10 nM

$$$$
>  <entry smiles>
CC(=O)N(Cc1ccc2ccccc2c1)[C@@H]1CCNC1

>  <subject of test>
Sodium-dependent serotonin transporter (Homo sapiens)

>  <readout>
IC50

>  <assay value>
5.2 nM

$$$$
>  <entry smiles>
CS(=O)(=O)N(Cc1ccc2ccccc2c1)[C@H]1CCNC1

>  <subject of test>
Sodium-dependent serotonin transporter (Homo sapiens)

>  <readout>
IC50

>  <assay value>
3.5 nM

$$$$

Turning now to a further record.
Qu. Could you please provide reported IC50 for CCC(=O)N(Cc1ccc2ccccc2c1)[C@@H]1CCNC1 ? Thanks!
Ans. 2.4 nM

Data provenance: ChEMBL document CHEMBL1156048
